Test system: VDR:RXRa (NR concentration 270 nM, RXRa partner concentration 90 nM)
Measurement Protocol: PBM binding z-score (relative to random genomic background probes); higher = stronger binding; sequences stand for … in GC…GCGATTGACAGCGTAGAATGAAGG
Quantity: PBM binding z-score
Give only the figure.

ACAGACAGGTGATGAAGGTAACGCAGGCTATCAT : -0.0633
CAAACTAGGTCATAGGTCAAAGTCGAGCCAACCA : 4.9
TCTAGCGGGCCAGAGGGTCACTCAAGAGGTACGG : 1.29
CCTAGTTGGTCAAGGTCAGACACGCTATAGGTAC : 2.83
ATCGAAAGGTCGAAGAGGTGAGTATACACCGTTT : 4.47
TCTTGTAGATCAACCGGAGGTTAAGAAAGATCGA : 0.672
GCTTACGGGTCAAAGGTTATCGCATGAATAGAAT : 5.72
CCGACTGGGGCAAGGTTACCATCACGCACAGCCA : -0.00962
TGAAGGAGGTTATAAGATCAGGGAACGTTGCAAA : 0.323
CCTGATAGGTCATGGTCAGCTAATCTACAGTATG : 2.95

Field: next sequence
## Input Look up PBM binding z-score for this sequence: ACCTACGGGTCAACGAGGTTATAGCACGCGTATA
## Output 7.64

---

Tested on: LXRa:RXRa (NR concentration 270 nM, RXRa partner concentration 90 nM)
Measurement Protocol: PBM binding z-score (relative to random genomic background probes); higher = stronger binding; sequences stand for … in GC…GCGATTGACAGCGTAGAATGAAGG
Respond with yes for PBM binding z-score values of 1 and above, no for values below.

Worked examples follow.
AATACAGGGTCATCGTAGGCCAGACTACGCACAG : yes
ATATGTAGGTTAGCTGGGGTCATGCAGACTAGGC : yes
ATCTCTAGGTAATAAGTTCAGTGAAAGAGAGGAC : yes

## Input Quick check: does TCTATTAGTTGATTAGGGCAACCCAAACAGCGGA have PBM binding z-score greater than or equal to 1?
## Output no

## Input Please check the record CGTCAACGTTCAAGGTAACGTAACAGAAAGCAGC and state if its PBM binding z-score is at or above 1.
## Output no

## Input Is PBM binding z-score at least 1? Consider TTACCAAGGTGAGCTGAGGTCGTTCATCCAACTC
## Output yes

---

System: LXRb:RXRa (NR concentration 270 nM, RXRa partner concentration 90 nM)
Measurement Protocol: PBM binding z-score (relative to random genomic background probes); higher = stronger binding; sequences stand for … in GC…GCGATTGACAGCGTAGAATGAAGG
Measured PBM binding z-score, listed per entry for reference.

Example results:
CCTTACGGGTCACTGACAGGTTATAGCATTTGGA : 3.5
CGAACTAGCTCATTGACAGGACAGTGAATAGTAA : -0.29
TCATCTAGGTAATACAGGTGAAAGTCGGCATCTA : 0.796
TCTCGGAGGACACAAAAGGTCAGAGCTCGACATC : 3.27
AGAATGAGGTTACCAAAGATCAGGTAAACGCTTG : 3.44
CAAACTACGTCAAGGTCAAAGTCGGTTTGTGCCA : 3.54

Turning now to a further sequence:
## Input Request - read-out PBM binding z-score | tested on LXRb:RXRa (NR concentration 270 nM, RXRa partner concentration 90 nM) | sequence TCATATAGGTAAATGCTCGGTGAAAGTCCGATCT
## Output 0.922

---

Test system: PPARg:RXRa 30nM:10nM, anti-RXR (NR concentration 30 nM, RXRa partner concentration 10 nM)
Measurement Protocol: PBM binding z-score (relative to random genomic background probes); higher = stronger binding; sequences stand for … in GC…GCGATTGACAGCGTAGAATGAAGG
Listed here: items and their measured PBM binding z-score.
Please respond with just the number, no unit label.

See these solved cases before continuing.
GCTAGTTCGTCAGTAAAAGGTCACACACCGGTCG : 1.55
TCAGAGAGGTGAAGGTAACTCAGGTACGCAGTCG : 3.84
ATCTCAAGGTAAAGATAGTTCAGTGAATGCAAAT : 0.448
TCTTGTAGATCAAGCAGATTAAGAAAGCCTGAGT : 2.63
ATATGTTGGTTACATCCGGGTCATTCAGGCTATG : 0.492

## Input Looking for the measured PBM binding z-score of CCTTACGGGCCACTGACAGGTTATAGCATTTGGA , can you help?
## Output -0.0145

## Input Fill in the blank: the reported PBM binding z-score of TTACCAAGGTGAAGGCCGTTGATCCCTCTGTAGA is ____.
## Output 0.659

## Input Reported PBM binding z-score, sequence TCTTGTAGATCAATATAGGTTAAGAAAGTGCGCT : ____
## Output 3.36

## Input Could you share which PBM binding z-score value was measured for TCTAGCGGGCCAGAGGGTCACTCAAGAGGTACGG ?
## Output 1.68

## Input What value of PBM binding z-score has been reported for the following sequence? TCTCGCAGGACACGAAGGTCAGAGCTTTCCAGAG
## Output 1.75

---

Tested on: LXRa homodimer (NR concentration 270 nM)
Measurement Protocol: PBM binding z-score (relative to random genomic background probes); higher = stronger binding; sequences stand for … in GC…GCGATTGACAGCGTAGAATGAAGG
Listing of recorded PBM binding z-score by entry.
Could you keep your reply to the number by itself?

TCGAGTATGTTACCAATGGGGCATTCAGCTTTCT : -0.402
CCTACTGGGCCAAAAAGGTCATAGATGCCGATAA : 2.44
ATATGTAGTTTAAGGGTCATTCAGGTTGGTTCGC : 2.99

## Input Data request, read-out PBM binding z-score, for ATATGTAAGTTACATCCGGGTCATTCAGGCTATG
## Output 0.923

## Input Name the recorded PBM binding z-score for ACAGACAGGTGAGTGAAGGTAACTGAGCTGGACG .
## Output -0.513

## Input So what's the measured PBM binding z-score for this one? CGTCCAAGGTCAGGAGGTCAGTGAAAGCGACGTG
## Output 1.15

## Input GET /values?readout=PBM binding z-score&item= CCTTACGGGTCACTCCAGGTTATGGCATCGGAGT
## Output 1.54

---

Tested on: PXR homodimer (NR concentration 270 nM)
Measurement Protocol: PBM binding z-score (relative to random genomic background probes); higher = stronger binding; sequences stand for … in GC…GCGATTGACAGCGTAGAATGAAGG
As shown below, each of these sequences has a reported PBM binding z-score value.
Format: numeric value only, no unit, no commentary.

Reference set, count: 2
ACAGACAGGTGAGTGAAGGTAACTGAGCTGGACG : -0.00734
GGAACGAGGGCAACTTGATAGCAGAGTTTGATGG : 0.418

## Input Any idea what PBM binding z-score was measured for ACAGACAGGTGAGTGAAGGTACCTCAGCTGGACG ?
## Output -0.592

---

System: LXRb homodimer (NR concentration 270 nM)
Measurement Protocol: PBM binding z-score (relative to random genomic background probes); higher = stronger binding; sequences stand for … in GC…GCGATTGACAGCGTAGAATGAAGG
Each record here notes measured PBM binding z-score.
Field format: numeric only.

Here are 4 sequences together with their reported answers.
TAGTCTAGGTCATTGGGCCAGTATAGTACGCATC : 2.53
GGAACGAGGGCATTCGAATTGATAGCATGGCGAT : -0.211
AGAATGAGGTTCTACGTAGATCAGGGAAGAAAGT : -0.624
TCATATAGGTAAACAGGCGAAAGTCCGTAAGTTA : -0.0877

Could you now consider this next sequence?
## Input // query PBM binding z-score value for entry TCTGCTAGGTCAGTTGGCCAGCTAACGAGCTGCC
## Output -0.163

---

Tested on: VDR homodimer (NR concentration 270 nM)
Measurement Protocol: PBM binding z-score (relative to random genomic background probes); higher = stronger binding; sequences stand for … in GC…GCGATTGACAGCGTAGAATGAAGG
Label rule, in plain words: PBM binding z-score of 0.4 and up is yes (1), under 0.4 is no (0).

For orientation, consider the following solved cases.
CCTAGTTGGTCAAGATCACACACGCTATAGGTAC : yes (1)
CGTCAAAGTTCAACTAAGGGAACGTAAAGCACGC : yes (1)
TGAATGAGGTTACAGATCAGGGAACGTGGCGTCG : no (0)
TAGCCTAGGTAATGGGCCAGTATACCACGCGAAC : no (0)
ACTAGTTGGTCAGCTGAGGTCGCACACAATTCGG : yes (1)
ACAGACAGGTGACTGAAGGTAACTCAGCTGGACG : no (0)

## Input Given the entry ACTTACGGGTCAACGAGGTTATAGCTCGCGTATA , answer whether its PBM binding z-score meets or surpasses 0.4.
## Output yes (1)

## Input Test whether the sequence ATCTCTAGGTAACCAGTTCAGTGAAAGAGAGGAC records PBM binding z-score of 0.4 or higher.
## Output yes (1)

## Input Does PBM binding z-score meet or surpass 0.4 for TAGCCTAGGTCATGGGGGCCAGTATAGTGTCGGC ?
## Output yes (1)

## Input Could you verify whether the entry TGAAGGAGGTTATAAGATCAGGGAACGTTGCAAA shows PBM binding z-score of no less than 0.4?
## Output no (0)

## Input Answer whether PBM binding z-score of AGTCAAACTTCACTAGGTAACGTAAGATTCAGCT is greater than or equal to 0.4.
## Output no (0)

## Input Form field: PBM binding z-score at least 0.4? Entry: AGAATGCGGTTATACGTAGATCAGGGAAGAAAGT
## Output no (0)

## Input Is it the case that ACTAGTTGGTCAGCTGAGGTCACACGCAATTCGG has PBM binding z-score reaching or exceeding 0.4?
## Output yes (1)
